System: 855422-203-R-J1-PDC complex spheroid growth;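 note: spheroids exposed to agents for seven days before readout; percent of DMSO vehicle control luminescence viability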
Experiment: Anticancer human tumor 855422-203-R-J1-PDC patient-derived bladder carcinoma cell line growth inhibition [AhR]
Conditions: second compound 0.1 µM; first compound 1 µM; stronger effect = lower value
With a cut-off of 90%, any viability, T/C strictly below it is called yes (1); any viability, T/C meeting it or above is called no (0).

O=C(c1cc(Cc2n[nH]c(=O)c3ccccc23)ccc1F)N1CCN(C(=O)C2CC2)CC1 + Cc1cncc(-c2nc(NCCc3c[nH]c4ccccc34)c3ncn(C(C)C)c3n2)c1: no (0)
CC1COCCN1c1cc(-c2ccnn2C)c2ccnc(-c3ccn[nH]3)c2n1 (stereo unspecified) + CC(CO)NC(=O)c1cc(-c2ccc(Cl)cc2)nn(-c2cnn(C)c2)c1=O: yes (1)

(Q) Record CC1COCCN1c1cc(C2(S(C)(=N)=O)CC2)nc(-c2ccnc3[nH]ccc23)n1 (stereo unspecified) + CC(CO)NC(=O)c1cc(-c2ccc(Cl)cc2)nn(-c2cnn(C)c2)c1=O : is its viability, T/C strictly below 90%?
(A) no (0)

(Q) Record COc1cc(Nc2ncc3c(n2)-c2ccc(Cl)cc2C(c2c(F)cccc2OC)=NC3)ccc1C(=O)O + Cc1ccccc1N=Nc1ccc(NC(=O)c2ccnn2C)c(C)c1 : is its viability, T/C strictly below 90%?
(A) yes (1)

(Q) Record O=C(c1cc(Cc2n[nH]c(=O)c3ccccc23)ccc1F)N1CCN(C(=O)C2CC2)CC1 + CC(CO)NC(=O)c1cc(-c2ccc(Cl)cc2)nn(-c2cnn(C)c2)c1=O : is its viability, T/C strictly below 90%?
(A) no (0)

(Q) Record COc1ccc([C@@H](O)c2cc(-c3ncnc4cc(N5CCOCC5)ccc34)c(F)cc2Cl)nn1 + Cc1cncc(-c2nc(NCCc3c[nH]c4ccccc34)c3ncn(C(C)C)c3n2)c1 : is its viability, T/C strictly below 90%?
(A) yes (1)
